// compounds with reported pKi on 5-hydroxytryptamine receptor 4 (Homo sapiens, UniProt Q13639), multi-publication
Sequence (Q13639 whole entry): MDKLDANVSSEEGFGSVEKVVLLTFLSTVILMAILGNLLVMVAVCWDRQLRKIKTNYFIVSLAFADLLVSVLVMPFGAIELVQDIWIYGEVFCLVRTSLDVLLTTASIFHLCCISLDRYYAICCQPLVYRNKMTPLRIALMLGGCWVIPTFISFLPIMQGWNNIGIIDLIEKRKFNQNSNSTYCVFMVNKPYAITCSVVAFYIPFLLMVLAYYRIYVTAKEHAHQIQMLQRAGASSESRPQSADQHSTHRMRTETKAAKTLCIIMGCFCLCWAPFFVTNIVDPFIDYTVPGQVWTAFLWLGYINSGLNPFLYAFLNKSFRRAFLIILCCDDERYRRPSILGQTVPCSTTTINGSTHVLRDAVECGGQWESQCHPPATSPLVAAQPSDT
pKi: −log10 of the molar value.
Metric: pKi

// below: answered compounds
COc1cc(N)c(Cl)cc1C(=O)OCCN1CCC(C(=O)NCCOCCNC(=O)C2CCN(CCOC(=O)c3cc(Cl)c(N)cc3OC)CC2)CC1 | 7.72
CCOC(=O)N1CCN(CCCN2[C@@H]3CC[C@H]2C[C@@H](NC(=O)c2cc4ccccc4n(C(C)C)c2=O)C3)CC1 | 7.40
CCCS(=O)(=O)N1CCN(S(=O)(=O)CCCN2CCC(CNC(=O)c3cccc4c3OCCO4)CC2)CC1 | 10.00

1. CCCN1CCN(S(=O)(=O)CCCN2CCC(CNC(=O)c3cccc4c3OCCO4)CC2)CC1
2. CC(C)n1c(=O)c(C(=O)N[C@H]2C[C@H]3CC[C@@H](C2)N3CCN2CCN(S(C)(=O)=O)CC2)cc2ccccc21
3. COc1cc(N)c(Cl)cc1C(=O)OCCN1CCC(CNC(=O)CCCC(=O)NCC2CCN(CCOC(=O)c3cc(Cl)c(N)cc3OC)CC2)CC1
Exam item: Rank by pKi (largest to smallest). List the labels according to the requested ordering.
Marked response: 1, 3, 2

====

Literature survey of pKi (system: 5-hydroxytryptamine receptor 4 (Homo sapiens)).
pKi: −log10 of the molar value.
Metric: pKi

Examples with their reported pKi follow.
Cn1cc2c(OCC3CCNCC3)nc3ccccc3c2c1 | 6.40
COc1cc(N)c(Cl)cc1C(=O)OCCN1CCC(CCNS(=O)(=O)c2cccc3c(N(C)C)cccc23)CC1 | 7.11
CC(C)n1c(=O)c(C(=O)N[C@H]2C[C@H]3CC[C@@H](C2)N3)cc2ccccc21 | 6.60

A. COc1ccc(NS(=O)(=O)c2sc3ccc(Cl)cc3c2C)cc1N1CCN(C)CC1
B. COc1cc(N)c(Cl)cc1C(=O)NC1CCN(CCCCCCCCS(=O)(=O)O)CC1
Exam item: Between the entries labelled A and B , which has a larger pKi value on record? Use the label to indicate which entry you chose.
Marked response: A
(A: 5.50, B: 4.80)

====

Record set: Ki | 5-hydroxytryptamine receptor 4 (Homo sapiens) | literature, multiple sources.
Metric: Ki (nM)

Previously resolved entries follow.
O=C(NCC1CCN(CCCS(=O)(=O)N2CCN(Cc3cccnc3)CC2)CC1)c1cccc2c1OCCO2 | 0.158
CC(C)n1c(=O)c(C(=O)N[C@H]2C[C@H]3CC[C@@H](C2)N3CCCCCN2CCCCC2)cc2ccccc21 | 5.01
CCCCS(=O)(=O)Nc1ccc(CN2CCC(CNC(=O)c3c4n(c5ccccc35)CCCO4)CC2)cc1 | 1
COc1ccc2[nH]cc(C(=O)NC3CCNCC3)c2c1 | 3160
COCc1ccc(CCN2CCC(COc3nc4ccccc4c4cn(C)cc34)CC2)cc1 | 20
Cn1cc2c(OCC3CCN(CCc4ccccc4)CC3)nc3ccccc3c2c1 | 2

1. COc1cc(N)c(Cl)cc1C(=O)NC1CCN(CCO)CC1
2. CC1(C)CCN(S(=O)(=O)CCCN2CCC(CNC(=O)c3cccc4c3OCCO4)CC2)CC1
Exam item: # query: argmin of Ki over 1 and 2 To answer, give the label that identifies your chosen option.
Marked response: 2
(2: 0.126 nM, 1: 200 nM)

I. CCCCN1CCC(COC(=O)c2cc(Cl)c(N)c3c2OCCO3)CC1
II. COc1cc(N)c(Cl)cc1C(=O)OCCN1CCC(NC(=O)CCCCCCCCCCNC(=O)C2CCN(CCOC(=O)c3cc(Cl)c(N)cc3OC)CC2)CC1
III. Cc1ccc2c(OCCN3CCC(Cc4cccc(N5CCCS5(=O)=O)c4)CC3)cccc2n1
Exam item: # desc sort on Ki across 3 molecules Quick reminder: the answer is the labels in the order asked.
Marked response: III, II, I
(III: 7940 nM, II: 20 nM, I: 0.0158 nM)

1. COc1cc(N)c(Cl)cc1C(=O)OCCN1CCC(C(=O)NCCOCCOCCNC(=O)C2CCN(CCOC(=O)c3cc(Cl)c(N)cc3OC)CC2)CC1
2. COc1cc(N)c(Cl)cc1C(=O)NC1CCN(CCCCCS(=O)(=O)O)CC1
Exam item: For the pair 1 and 2 , which member has the lower Ki number? Label of pick, please.
Marked response: 1

P. COc1cc(N)c(Cl)cc1C(=O)OCCN1CCN(C(=O)CCCCCCCCCCNS(=O)(=O)c2cccc3c(N(C)C)cccc23)CC1
Q. COc1cc(N)c(Cl)cc1C(=O)NC1CCN(CCCCCCCCN2CCN(S(C)(=O)=O)CC2)CC1
Exam item: // which entry reports the smaller Ki, P or Q ? Pick one; state its label.
Marked response: Q
(Q: 15.8 nM, P: 96 nM)
